Where these numbers come from: PubChem BioAssay AID1347156

test: DAPI mCherry counterscreen qHTS for Zika virus inhibitors; details: Vero cells, DAPI nuclear count cytotoxicity, imaging 48-72 h, infected with Zika reporter virus, MOI 1; series mostly up to 32.6 µM; also: potency is read from the fitted curve at half-maximal effect; nearly all actives have a fitted effect of over 55% in size
Records with an inconclusive call do not appear. Activity calls are given as the source filed them. Calls follow the shape of the dose curve; as a rule, active = well fitted cell-killing curve with a large enough effect; inconclusive = small, poorly fitted or top-dose-only effect; inactive = flat fitted curve, though single readings scatter.
PROPERTY: Potency

The examples below pair each entry with its known result.
CCOC(=O)c1ccc(N2C(=O)c3n[nH]c(-c4cccs4)c3C2c2ccc(C(C)(C)C)cc2)cc1 (stereo not drawn) | 10 µM (active)
CCOc1nc2cccc(C(=O)OC(C)OC(=O)OC3CCCCC3)c2n1Cc1ccc(-c2ccccc2-c2nn[nH]n2)cc1 (stereo not drawn) | 15.8 µM (active)

Now let's try a different one.
In: I would be grateful if you could share the reported Potency for COc1ccc(Cl)c(Nc2nc3ccccc3nc2NS(=O)(=O)c2cccc(NC(=O)C(C)(C)N)c2)c1 .
Out: 22.4 µM (active)
